Where these numbers come from: patent US20250179047A1

Entries and their pKi
measured_target: BCL2 G101V (Homo sapiens, UniProt P10415, G101V)
assay_notes: TR-FRET competitive binding assay, BCL2 G101V
protocol_conditions: BCL2 G101V; Ki determined from IC50; read-out: TR_FRET EKI_Bcl2 G101V
# pKi = -log10(concentration in molar units)

Some entries whose results are on file:
[in] Form field: reported pKi of COc1ccc(N(C(=O)c2cc(-c3cc4c(cc3C(=O)N3Cc5ccccc5C[C@H]3CN(C)C(C)C)CN(C(=O)Cc3ccc(OCCN5CCOCC5)cc3F)CC4)n(C)c2C)c2ccc(O)cc2)cc1C#N
[out] 9.22

[in] Form field: reported pKi of COc1ncc(N(C(=O)c2cc(-c3cc4c(cc3C(=O)N3Cc5ccccc5C[C@H]3CN3CCCCC3)CN(C(=O)Cc3ccc(OCCN5CCOCC5)cc3F)CC4)n(C)c2C)c2ccc(O)cc2)cc1F
[out] 9.22

[in] Form field: reported pKi of COC[C@@H]1Cc2ccccc2CN1C(=O)c1cc2c(cc1-c1cc(C(=O)N(c3ccc(O)cc3)c3cc(C#N)n(C(F)F)c3C)c(C)n1C)CCN(C(=O)Cc1ccc(OCCN3CCOCC3)cc1)C2
[out] 9.30

[in] Form field: reported pKi of Cc1c(N(C(=O)c2cc(-c3cc4c(cc3C(=O)N3Cc5ccccc5C[C@H]3C)CN(C(=O)Cc3ccc(OCCN(C)C)cc3F)CC4)n(C)c2C)c2ccccc2)cc(C#N)n1C
[out] 9.40

[in] Form field: reported pKi of Cc1c(N(C(=O)c2cc(-c3cc4c(cc3C(=O)N3Cc5ccccc5C[C@H]3C)CN(C(=O)COc3ccccc3)CC4)n(C)c2C)c2ccc(O)cc2)cc(C#N)n1C
[out] 9.30

***
[in] Form field: reported pKi of Cc1c(N(C(=O)c2cc(-c3cc4c(cc3C(=O)N3Cc5ccccc5C[C@H]3C)CN(C(=O)Cc3ccc(N5CCN(CC(F)(F)F)CC5)cc3)CC4)n(C)c2C)c2ccc(O)cc2)cc(C#N)n1C
[out] 8.46

[in] Form field: reported pKi of Cc1c(N(C(=O)c2cc(-c3cc4c(cc3C(=O)N3Cc5ccccc5C[C@H]3C)CN(C(=O)Cc3ccc(Cl)cc3F)CC4)n(C)c2C)c2ccc(O)cc2)cc(C#N)n1C
[out] 8.72

[in] Form field: reported pKi of Cc1c(N(C(=O)c2cc(-c3cc4c(cc3C(=O)N3Cc5ccccc5C[C@H]3C)CN(C(=O)Cc3ccc(OCCN5CC(F)C5)cc3)CC4)n(C)c2C)c2ccc(O)cc2)cc(C#N)n1C
[out] 9.70

###

measured_target: BCL2 D103Y (Homo sapiens, UniProt P10415, D103Y)
assay_notes: TR-FRET competitive binding assay, BCL2 D103Y
protocol_conditions: Ki determined from IC50, read-out: TR_FRET EKI_Bcl2 D103Y
Procedure: The relative binding potency of each compound was determined in a competitive binding assay using time resolved-fluorescence resonance energy transfer (TR-FRET). […] The degree of binding or corresponding compound inhibition can be quantified by the TR-FRET signal between the terbium donor and fluorescein acceptor. […] TR-FRET measurements were performed on a Biotek Synergy Neo plate reader. […] The TR-FRET signal was calculated as the emission-ratio at 520 nm over 495 nm. […]
Entries and their pKi
# pKi = -log10(concentration in molar units)

Some entries whose results are on file:
[in] Form field: reported pKi of Cc1c(N(C(=O)c2cc(-c3cc4c(cc3C(=O)N3Cc5ccccc5C[C@H]3C)CN(C(=O)COc3ccccc3)CC4)n(C)c2C)c2ccc(O)cc2)cc(C#N)n1C
[out] 8.96

[in] Form field: reported pKi of Cc1c(C(=O)N(c2ccccc2)c2cnn(C(F)F)c2)cc(-c2cc3c(cc2C(=O)N2Cc4ccccc4C[C@H]2CN2CCCCC2)CN(C(=O)Cc2ccc(OCCC4CCOCC4)cc2)CC3)n1C
[out] 9.19

[in] Form field: reported pKi of Cc1c(N(C(=O)c2cc(-c3cc4c(cc3C(=O)N3Cc5ccccc5C[C@H]3CN3CCCCC3)CN(C(=O)Cc3ccc(OCCN5CCOCC5(C)C)cc3)CC4)n(C)c2C)c2ccc(O)cc2)cc(C#N)n1C
[out] 9.74

[in] Form field: reported pKi of Cc1c(N(C(=O)c2cc(-c3cc4c(cc3C(=O)N3Cc5ccccc5C[C@H]3C)CN(C(=O)Cc3ccc(OCCN5CCO[C@@H](C)C5)cc3)CC4)n(C)c2C)c2ccc(O)cc2)cc(C#N)n1C
[out] 9.82

[in] Form field: reported pKi of Cc1c(C(=O)N(c2ccc(O)cc2)c2ccc(OC(C)C)c(C#N)c2)cc(-c2cc3c(cc2C(=O)N2Cc4ccccc4C[C@H]2CN2CCCCC2)CN(C(=O)Cc2ccc(OCCN4CCOCC4)cc2F)CC3)n1C
[out] 9.66

// below: pKi requested for another molecule
[in] Form field: reported pKi of Cc1c(N(C(=O)c2cc(-c3cc4c(cc3C(=O)N3Cc5ccccc5C[C@H]3C)CN(C(=O)Cc3ccc(F)cc3F)CC4)n(C)c2C)c2ccc(O)cc2)cc(C#N)n1C
[out] 9.26
